IC50 reference
system: SUP-M2 cells; experiment: CellTiter-Glo 2.0 cell viability assay, SUP-M2; type: cell-based; details: SUP-M2, 96 h, 4 days

CCS(=O)(=O)c1ccc(CNC(=O)[C@H](CCC(N)=O)NC(=O)[C@@H]2CC[C@@H]3CCN(C(=O)CCCCc4cn([C@@H](C(=O)N5C[C@H](O)C[C@H]5C(=O)N[C@H](C)c5ccc(-c6scnc6C)cc5)C5CCOCC5)nn4)C[C@H](NC(=O)c4cc5cc(C(=O)P(=O)(O)O)ccc5[nH]4)C(=O)N32)cc1 < 10 nM

Tell us which IC50 value is on record for Cc1ncsc1-c1ccc([C@H](C)NC(=O)[C@@H]2C[C@@H](O)CN2C(=O)[C@@H](n2cc(CCc3cccc(OC[C@H](CCC(N)=O)NC(=O)[C@@H]4CC[C@@H]5CCN(C(=O)C(C)C)C[C@H](NC(=O)c6cc7cc(C(=O)P(=O)(O)O)ccc7[nH]6)C(=O)N54)c3Cl)nn2)C(C)(C)C)cc1 10 to 100 nM
